test-method-notes: Approximate solubility at RT by stepwise solvent addition
Format: physicochemical
test-context: MIBK, organic solvent or mixture, thermodynamic from solid, MIBK, read-out: Solubility
measured-attribute: Solubility

Req: Bench note: what Solubility did COCCN(CCCCc1ccc2c(n1)NCCC2)CC[C@H](Nc1ncnc2ccccc12)C(=O)O show?
Resp: 2500 to 8300 µg/mL

###

test-method-notes: Approximate solubility at RT by stepwise solvent addition
Assay type: physicochemical
test-context: MTBE, organic solvent or mixture, thermodynamic from solid, MTBE, read-out: Solubility
measured-attribute: Solubility

Req: Bench note: what Solubility did COCCN(CCCCc1ccc2c(n1)NCCC2)CC[C@H](Nc1ncnc2ccccc12)C(=O)O show?
Resp: < 2000 µg/mL
